Consider the following variants; for each one, report its protein stability index.
B1: RBBP5 (parent)
chain: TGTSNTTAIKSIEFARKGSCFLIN

- Variants of: B1
- METHOD_DESCRIPTION: protein stability index of a GFP-peptide fusion (GPS, HEK-293T) (PSI 1-6); higher = more stable;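 further: lentivirally expressed fusions sorted by FACS into six bins by GFP to DsRed ratio, PSI derived from sequencing read proportions per bin multiplied by bin number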
- MEASUREMENT_PARAMETERS: c terminus: a fixed tail appended
Numbers only.

Worked examples follow.
TGTSNTTAQKSIEFARKGSCFLIN [I9Q] = 2.62
TGNSNTTAIKSIEFARKGSCFLIN [T3N] = 1.86
TGTSNTTAIKSIEFARWGSCFLIN [K17W] = 2.11
TGTSNTTAIKSIEFARKGSVFLIN [C20V] = 2.09
TGTSNTTAIKSIEFARLGSCFLIN [K17L] = 1.75

Need protein stability index for each of these variants.
1. TGTSNTTAIKSIEEARKGSCFLIN [F14E]
2. TGTSNTTAIKSIEFAHKGSCFLIN [R16H]
3. TGTSNTTAIKMIEFARKGSCFLIN [S11M]
4. TGTSNTTAIKSIEVARKGSCFLIN [F14V]
5. TGTSNTTAIKKIEFARKGSCFLIN [S11K]
6. TGTSNTTAITSIEFARKGSCFLIN [K10T]
7. TGTSNTTAIKLIEFARKGSCFLIN [S11L]
8. TGTSNTTAIKSIEFAMKGSCFLIN [R16M]

-- reply
1: 3.84; 2: 2.15; 3: 2.09; 4: 2.86; 5: 2.13; 6: 1.77; 7: 2.5; 8: 1.75
